- TESTED_ON: PRMT5/MEP50 complex (Homo sapiens (Human), UniProt O14744)
- Sequence (O14744 2-637): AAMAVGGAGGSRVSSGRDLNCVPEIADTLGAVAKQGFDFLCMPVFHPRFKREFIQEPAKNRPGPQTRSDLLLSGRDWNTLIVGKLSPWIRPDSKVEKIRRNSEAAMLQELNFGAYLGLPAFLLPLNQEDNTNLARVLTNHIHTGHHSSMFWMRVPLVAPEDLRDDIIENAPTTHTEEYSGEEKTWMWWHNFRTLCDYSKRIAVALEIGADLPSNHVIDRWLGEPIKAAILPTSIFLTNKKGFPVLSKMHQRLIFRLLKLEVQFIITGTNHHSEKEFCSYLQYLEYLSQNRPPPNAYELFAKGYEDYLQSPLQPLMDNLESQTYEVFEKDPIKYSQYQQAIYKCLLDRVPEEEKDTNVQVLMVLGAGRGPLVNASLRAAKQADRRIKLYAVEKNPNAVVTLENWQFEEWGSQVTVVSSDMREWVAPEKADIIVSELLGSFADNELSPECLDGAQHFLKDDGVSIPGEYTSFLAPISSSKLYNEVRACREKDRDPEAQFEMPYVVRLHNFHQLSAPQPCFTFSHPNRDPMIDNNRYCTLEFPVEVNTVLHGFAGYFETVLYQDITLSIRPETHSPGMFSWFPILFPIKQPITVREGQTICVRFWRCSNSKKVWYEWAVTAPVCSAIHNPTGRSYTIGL
- Sequence (Q9BQA1 2-342 partner): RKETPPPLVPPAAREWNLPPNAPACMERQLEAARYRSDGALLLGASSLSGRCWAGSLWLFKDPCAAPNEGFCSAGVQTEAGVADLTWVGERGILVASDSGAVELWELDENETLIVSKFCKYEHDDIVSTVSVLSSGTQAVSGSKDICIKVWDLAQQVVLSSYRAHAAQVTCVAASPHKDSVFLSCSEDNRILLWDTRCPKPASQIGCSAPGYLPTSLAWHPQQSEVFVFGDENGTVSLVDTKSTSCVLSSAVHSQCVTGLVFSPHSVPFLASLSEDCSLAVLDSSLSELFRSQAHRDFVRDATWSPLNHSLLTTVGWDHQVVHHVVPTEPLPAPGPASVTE
- PROTOCOL_DETAILS: PRMT5:MEP50 FlashPlate Assay (histone H4 peptide substrate, plus and minus MTA)
- Type: biochemical
- ASSAY_SETUP: in the absence of MTA, read-out: IC50
Give pIC50 for every item shown.
// pIC50 here means minus log10 of the molar concentration (mol/L)

input: Supply measured pIC50 of `NCc1n[nH]c(=O)c2ccc(-c3cnc4ccc(OC(F)(F)F)cn34)cc12` in your reply.
output: 6.07

input: Supply measured pIC50 of `NCc1n[nH]c(=O)c2ccc(-c3cnn4c3CN(C3CC3)CC4)cc12` in your reply.
output: 5.87

input: Supply measured pIC50 of `Cc1c(-c2ccc3c(=O)[nH]nc(CN)c3c2)cncc1C1CC1` in your reply.
output: 5.76

input: Supply measured pIC50 of `Cc1ccc2ncc(-c3ccc4c(=O)[nH]nc(CN)c4c3)n2n1` in your reply.
output: 5.69

input: Supply measured pIC50 of `NCc1n[nH]c(=O)c2ccc(-c3cnc4[nH]cc(CO)c4c3)cc12` in your reply.
output: 6.18
